- assaySystem: PI 3-Kinase Gamma (Homo sapiens (Human), UniProt P48736)
- Sequence (P48736 whole entry): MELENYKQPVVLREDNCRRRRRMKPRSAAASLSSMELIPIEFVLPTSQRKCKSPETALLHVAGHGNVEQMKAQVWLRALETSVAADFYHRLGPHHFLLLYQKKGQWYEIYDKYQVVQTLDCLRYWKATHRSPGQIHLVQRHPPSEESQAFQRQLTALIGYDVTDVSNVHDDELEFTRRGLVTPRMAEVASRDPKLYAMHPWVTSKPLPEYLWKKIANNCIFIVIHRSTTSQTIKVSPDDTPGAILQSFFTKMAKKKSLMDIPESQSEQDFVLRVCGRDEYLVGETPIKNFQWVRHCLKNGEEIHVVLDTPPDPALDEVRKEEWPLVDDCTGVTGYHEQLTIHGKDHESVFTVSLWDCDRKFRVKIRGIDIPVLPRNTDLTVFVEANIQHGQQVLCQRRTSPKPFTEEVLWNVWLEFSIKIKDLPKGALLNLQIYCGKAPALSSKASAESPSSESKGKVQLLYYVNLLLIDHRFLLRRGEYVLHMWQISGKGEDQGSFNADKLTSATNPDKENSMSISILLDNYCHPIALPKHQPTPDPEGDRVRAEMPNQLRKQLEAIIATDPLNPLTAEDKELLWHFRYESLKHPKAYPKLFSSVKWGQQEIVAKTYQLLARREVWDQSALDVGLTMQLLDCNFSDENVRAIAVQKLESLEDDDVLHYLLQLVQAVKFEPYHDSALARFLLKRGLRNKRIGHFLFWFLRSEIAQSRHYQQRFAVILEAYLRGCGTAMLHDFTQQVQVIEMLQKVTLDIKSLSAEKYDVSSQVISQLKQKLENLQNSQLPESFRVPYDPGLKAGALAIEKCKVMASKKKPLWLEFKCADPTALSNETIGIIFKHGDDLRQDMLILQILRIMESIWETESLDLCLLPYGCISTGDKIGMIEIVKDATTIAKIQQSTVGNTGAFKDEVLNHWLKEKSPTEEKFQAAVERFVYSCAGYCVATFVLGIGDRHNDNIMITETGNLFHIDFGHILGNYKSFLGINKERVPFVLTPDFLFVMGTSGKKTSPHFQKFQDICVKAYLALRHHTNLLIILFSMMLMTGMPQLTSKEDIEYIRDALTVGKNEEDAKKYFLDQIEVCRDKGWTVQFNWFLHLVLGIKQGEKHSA
- testDetails: Cellular U937 AKT assay for PI 3-kinase gamma
- experimentalContext: U937 cells, MIP1α-stimulated AKT phosphorylation, read-out: Cell PI3K gamma IC50
readout: IC50 (nM)

compound	readout	endpointUnit	relationSign	result
Cn1cc(-c2c(F)ccc3nc([C@@H]4CCCN4c4ncnc(N)c4C#N)n(-c4ccccc4)c(=O)c23)cn1 [Example 5]	IC50	nM	=	220
COc1ncc(-c2cccc3nc([C@@H]4CCCN4c4nc(N)nc(C)c4C#N)n(-c4ccccc4)c(=O)c23)cn1 [Example 4]	IC50	nM	=	40
COc1ncc(-c2cccc3nc([C@@H]4C[C@H](O)CN4c4nc(N)nc(C)c4C#N)n(-c4ccccc4)c(=O)c23)cn1 [Example 22]	IC50	nM	=	18
Cn1cnc(-c2cccc3nc([C@@H]4CCCN4c4ncnc(N)c4C#N)n(-c4ccccc4)c(=O)c23)c1 [Example 15]	IC50	nM	>	10000

* * *

Target or system PI3K alpha (Homo sapiens (Human)): recorded IC50 listed per item.
readout: IC50 (nM)

chemicalString	result
Cc1nc(N)nc(N2CCC[C@H]2c2nc3cccc(-c4cccnc4)c3c(=O)n2-c2ccccc2)c1C#N	260
COc1ncc(-c2cccc3nc([C@@H]4C[C@H](O)CN4c4nc(N)nc(C)c4C#N)n(-c4ccccc4)c(=O)c23)cn1	580
COc1ncc(-c2c(F)ccc3nc([C@@H]4C[C@H](O)CN4c4nc(N)nc(C)c4C#N)n(-c4ccccc4)c(=O)c23)cn1	210

* * *

- assaySystem: UniProtKB P48736
- testDetails: Cellular U937 AKT assay for PI 3-kinase gamma
- experimentalContext: U937 cells, MIP1α-stimulated AKT phosphorylation, read-out: Cell PI3K gamma IC50
Decision: IC50 beneath 40 nM gives y; IC50 meeting or exceeding 40 nM gives n.

compound	categoryLabel
N#Cc1c(N)ncnc1N1CCC[C@H]1c1nc2cccc(C#CCO)c2c(=O)n1-c1ccccc1 [Example 33]	n
Cn1cc(-c2c(F)ccc3nc([C@@H]4C[C@H](O)CN4c4ncnc(N)c4C#N)n(-c4ccccc4)c(=O)c23)cn1 [Example 8]	y
CO[C@H]1C[C@@H](c2nc3cccc(-c4cnn(C)c4)c3c(=O)n2-c2ccccc2)N(c2nc(N)nc(C)c2C#N)C1 [Example 10]	y
Cc1nc(N)nc(N2C[C@@H](F)C[C@H]2c2nc3cccc(-c4cnn(C)c4)c3c(=O)n2-c2ccccc2)c1C#N [Example 30]	y
COc1cncc(-c2cccc3nc([C@@H]4CCCN4c4nc(N)nc(C)c4C#N)n(-c4ccccc4)c(=O)c23)c1 [Example 18]	y

* * *

Target or system PI3K gamma (Homo sapiens (Human), UniProt P48736): recorded IC50 listed per item.

chemicalString	IC50, nM
Cc1nc(N)nc(N2C[C@@H](O)C[C@H]2c2nc3ccc(F)c(-c4cn(C)cn4)c3c(=O)n2-c2ccccc2)c1C#N	110
Cc1nc(N)nc(N2C[C@@H](O)C[C@H]2c2nc3cccc(-c4cnn(C)c4)c3c(=O)n2-c2ccccc2)c1C#N	48
COc1ncc(-c2c(F)ccc3nc([C@@H]4C[C@H](O)CN4c4nc(N)nc(C)c4C#N)n(-c4ccccc4)c(=O)c23)cn1	110
Cc1nc(N)nc(N2C[C@@H](O)C[C@H]2c2nc3cccc(-c4cncnc4)c3c(=O)n2-c2ccccc2)c1C#N	410
COc1ncc(-c2c(F)ccc3nc([C@@H]4C[C@H](O)CN4c4nc(N)nc(C)c4C#N)n(-c4ccccc4)c(=O)c23)s1	18
COc1ccc(-c2cccc3nc([C@@H]4C[C@H](O)CN4c4nc(N)nc(C)c4C#N)n(-c4ccccc4)c(=O)c23)cn1	58
Cn1cc(-c2c(F)ccc3nc([C@@H]4C[C@H](O)CN4c4ncnc(N)c4C#N)n(-c4ccccc4)c(=O)c23)cn1	750
